Origin of values: patent US5140040A

tested on: alpha-2-receptor; test: Radioligand binding, alpha-2 adrenoceptor, rat cerebral cortices, [^3 H]-rauwolscine; conditions: ratio of Ki alpha-1 to Ki alpha-2
Counter-ions that a name gives are not always drawn.
Answer each item with its documented alpha-2 - Selectivity Ki alpha-1/Ki alpha 2.
Give bare numbers.

Here are 3 compounds together with their reported answers.
# Compound, Result Number
data = [
    ("c1csc(C2CCN(CC3CCCc4c3ccc3c4OCO3)C2)c1 (stereo not shown) [Example 144]", 204),
    ("CCCN(CCc1cccs1)CC1CCCc2cc(OC)ccc21 (stereo not shown) [Example 58, hydrochloride]", 102),
    ("CCOc1ccc2c(c1)CCCC2CN(C)CCc1cccc(N)c1 (stereo not shown) [Example 69, dihydrochloride]", 98),
]

Identify measured alpha-2 - Selectivity Ki alpha-1/Ki alpha 2 associated with CN(CCc1cccc(N)c1)CC1CCCc2cc(O)ccc21 (stereo not shown) [Example 68, dihydrobromide]
196

----------
For each entry below, report its alpha-2 - Selectivity Ki alpha-1/Ki alpha 2 value.
tested on: alpha-2-receptor; experiment: Radioligand binding, alpha-2 adrenoceptor, rat cerebral cortices, [^3 H]-rauwolscine; conditions: ratio of Ki alpha-1 to Ki alpha-2
Structures can show the parent of a compound that is named as a salt.
Numbers only.

The following compounds have reported results that may help.
# Compound, Test System, Result Number
records = [
    ("COc1ccc2c(c1)C(CN(C)CCc1cccs1)CCC2 (centres unmarked) [Example 27, hydrochloride]", "alpha-2-receptor", 263),
    ("CN(CCc1cccs1)CC1CCCc2c1ccc(O)c2O (centres unmarked) [Example 87, hydrochloride]", "alpha-2-receptor", 278),
    ("CN(C)c1ccc2c(c1)CCCC2CN1CCC(c2ccccc2)C1 (centres unmarked) [Example 188, dihydrochloride]", "alpha-2-receptor", 236),
    ("CN(CCc1cccc(F)c1)CC1CCCc2c1ccc1c2OCO1 (centres unmarked) [Example 166]", "alpha-2-receptor", 134),
]

# context switch: different compound, same alpha-2 - Selectivity Ki alpha-1/Ki alpha 2
Fill in reported alpha-2 - Selectivity Ki alpha-1/Ki alpha 2 for this entry: COc1ccc2c(c1)CCCC2CN(C)CCC1CCCS1 (centres unmarked) [Example 6h, hydrochloride]
430
